Data provenance is ChEMBL document CHEMBL5308541.

tested on: Plasmodium falciparum; assay: Confirmatory screen in NF54 nanoGlo assay, in single point, at 2uM, 72h; type: functional, Erythrocyte; details: timepoint 72 hour
Screen size: about 4,800 compounds; about 420 (8.8%) showed an effect of 50% or more. This is one part of a sample in which strong results are shown more often than they occur.
Parameter % Inhibition: see the listing below.
Please give a number only; it is taken to be in %.

See these solved cases before continuing.
Cc1cc(N2CCC(NCCc3c[nH]cn3)CC2)nc(-c2ccccc2)n1 :: 17
Cc1ccc2[nH]cc(-c3cc(N4CCOCC4)nc(N)n3)c2c1 :: 57
CN1CCN(CCc2ccc(N[C@H]3CCCN(Cc4ccccc4)C3(C)C)cc2)CC1 :: 10

Briefly, % Inhibition measured for COCCN1CC[C@H](CN(C)c2ccnc3cc(Cl)ccc23)C1 : 98

Briefly, % Inhibition measured for CCCN1CCC(Nc2cc(C)nc3ccccc23)CC1 : 77

Briefly, % Inhibition measured for Cc1cccc(N2CCC(NCc3cc(C)cc(CN4CCN(C)CC4)c3C)CC2)c1 : 61

Briefly, % Inhibition measured for Nc1cc(N2CCC(c3nc4cc(F)ccc4[nH]3)CC2)nc(N2CCOCC2)n1 : 39

Briefly, % Inhibition measured for Cc1ocnc1CNC[C@H](O)c1ccc(Cl)c(Cl)c1 : 89

Briefly, % Inhibition measured for CNc1nc(N[C@H]2CCCN(Cc3ccc(Cl)cc3)C2)nc2c1CCC2 : 79

Briefly, % Inhibition measured for Cc1ccccc1-c1cccc(CNCCCN2CCC[C@H](O)C2)c1 : 12

Briefly, % Inhibition measured for Cc1ccc2nc(CCCNC3CCN(c4cc(C)nc(N)n4)CC3)oc2c1 : 29

Briefly, % Inhibition measured for Nc1nc(NCC2CCN(CCc3ccccc3)CC2)cc([C@H]2C[C@@H](N)C2)n1 : 23

Briefly, % Inhibition measured for CCN(C)CC1CCN(c2nc(NCCOC)nc(N3CCC(CN(C)CC)C3)n2)C1 (centres undefined) : 1

Briefly, % Inhibition measured for Cc1ccc2nc(NC[C@H]3CCN(C4CC4)C3)cc(C)c2c1 : 93

Briefly, % Inhibition measured for CN(C)Cc1cccc(CCNCc2csc(-c3ccc(C(F)(F)F)cc3)n2)c1 : 74

Briefly, % Inhibition measured for CN1CCC(N2CCC(NC(=O)c3ccc(S(=O)(=O)N(C)C4CCCCC4)cc3)CC2)CC1 : 44

Briefly, % Inhibition measured for c1ccc2c(Nc3ccc4[nH]cnc4c3)c3ccccc3nc2c1 : 98

Briefly, % Inhibition measured for CC(C)(C)n1ncc2c(NCc3ccc4cccnc4c3O)ncnc21 : 27

Briefly, % Inhibition measured for CN1CCN(CC2CCN(c3ccnc4ccccc34)CC2)CC1 : 99

Briefly, % Inhibition measured for Cc1cc(C)c(CN2CCN(C)CC2)cc1CNCCCn1ccnc1C : 38
